Origin of measurements: patent US5620676A

Target: P2X receptor (urinary bladder) (Cavia porcellus, UniProt A0A286XVA9)
Construct: guinea pig isolated urinary bladder detrussor muscle; from tissue; host or cells: guinea pig isolated urinary bladder detrusor muscle
Sequence (A0A286XVA9 entry or part of it): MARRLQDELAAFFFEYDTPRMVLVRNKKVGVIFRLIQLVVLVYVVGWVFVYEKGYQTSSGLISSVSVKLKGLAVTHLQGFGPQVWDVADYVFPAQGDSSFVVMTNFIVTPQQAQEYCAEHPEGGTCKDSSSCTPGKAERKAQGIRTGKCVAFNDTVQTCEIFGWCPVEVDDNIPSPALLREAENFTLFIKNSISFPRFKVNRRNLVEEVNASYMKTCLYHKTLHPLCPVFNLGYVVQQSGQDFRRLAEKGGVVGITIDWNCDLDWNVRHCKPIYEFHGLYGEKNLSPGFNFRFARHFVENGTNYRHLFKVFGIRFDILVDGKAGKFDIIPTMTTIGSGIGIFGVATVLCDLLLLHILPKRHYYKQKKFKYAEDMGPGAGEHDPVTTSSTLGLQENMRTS
Assay: Contraction of guinea pig isolated urinary bladder detrussor muscle
Settings: guinea pig urinary bladder

COMPOUND	activity/potency in words, bladder
Nc1ncnc2c1ncn2[C@H]1CC[C@@H](COP(=O)(O)OP(=O)(O)OP(=O)(O)O)O1 [2',3'-Dideoxy-ATP, 2',3'-dideoxy-ATP, reference compound]	>ATP

* * *

Target: P2Y receptor (turkey erythrocyte membranes) (Meleagris gallopavo, UniProt P49652)
Construct: from tissue; host or cells: washed turkey erythrocytes, ghosts prepared by hypotonic lysis
Sequence (P49652 whole entry): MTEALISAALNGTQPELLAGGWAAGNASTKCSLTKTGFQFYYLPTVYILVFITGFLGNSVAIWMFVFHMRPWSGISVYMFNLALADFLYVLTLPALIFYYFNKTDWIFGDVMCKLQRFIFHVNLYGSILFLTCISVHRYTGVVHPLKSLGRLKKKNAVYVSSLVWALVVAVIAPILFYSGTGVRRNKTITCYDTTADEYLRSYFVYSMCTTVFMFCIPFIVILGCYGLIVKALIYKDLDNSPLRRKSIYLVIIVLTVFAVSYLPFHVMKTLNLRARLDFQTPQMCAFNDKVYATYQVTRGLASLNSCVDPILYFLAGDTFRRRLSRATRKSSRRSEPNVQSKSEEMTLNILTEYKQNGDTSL
Experiment: Stimulation of phospholipase C (inositol phosphate formation) in turkey erythrocyte membranes
Assay type: biochemical
Conditions: turkey erythrocyte membranes; mean ± S.E.M. for at least 2 determinations; read-out: phosphatidyl inositol metabolism (K0.5, nM) erythrocyte

COMPOUND	VALUE UNIT	RESULT COMPARATOR	EC50
CC1(C)O[C@@H]2[C@H](O1)[C@@H](COP(=O)(O)OP(=O)(O)OP(=O)(O)O)O[C@H]2n1cnc2c(N)ncnc21 [2',3'-Isopropylidene-ATP]	nM	=	201000
Nc1nc(SCCCCCCCS)nc2c1ncn2[C@@H]1O[C@H](COP(=O)(O)OP(=O)(O)OP(=O)(O)O)[C@@H](O)[C@H]1O [2-(7-Thioheptyl)thio-ATP]	nM	=	773
N#CSCCCCCCCSc1nc(N)c2ncn([C@@H]3O[C@H](COP(=O)(O)OP(=O)(O)OP(=O)(O)O)[C@@H](O)[C@H]3O)c2n1 [2-[(7-Thiocyanatoheptyl)thio]-ATP]	nM	=	25.9
CC(=O)N[C@H]1[C@@H](O)[C@H](n2cnc3c(N)ncnc32)O[C@@H]1COP(=O)(O)OP(=O)(O)OP(=O)(O)O [3'-Acetylamino-3'deoxy-ATP]	nM	>	100000
CCCCCSc1nc(N)c2ncn([C@@H]3O[C@H](COP(=O)(O)O)[C@@H](O)[C@H]3O)c2n1 [2-pentylthio AMP]	nM	=	10000
Nc1ccc(CCSc2nc(N)c3ncn([C@@H]4O[C@H](COP(=O)(O)OP(=O)(O)OP(=O)(O)O)[C@@H](O)[C@H]4O)c3n2)cc1 [2-(2-p-Aminophenylethyl)-thio-ATP]	nM	=	1.53
Nc1nc(SC2CCCCC2)nc2c1ncn2[C@@H]1O[C@H](COP(=O)(O)OP(=O)(O)OP(=O)(O)O)[C@@H](O)[C@H]1O [2-Cyclohexylthio-ATP, 2-cyclohexylthio-ATP]	nM	=	24
Nc1ncnc2c1ncn2[C@H]1C[C@H](O)[C@@H](COP(=O)(O)OP(=O)(O)OP(=O)(O)O)O1 [2'-Deoxy-ATP, 2'-deoxy-ATP, reference compound]	nM	=	19200
NCCCCCCNc1nc2c(N)ncnc2n1[C@@H]1O[C@H](COP(=O)(O)OP(=O)(O)OP(=O)(O)O)[C@@H](O)[C@H]1O [8-(6-Aminohexylamino)-ATP, 8-(6-aminohexylamino)-ATP, reference compound]	nM	=	8200
Nc1c2ncn([C@@H]3O[C@H](COP(=O)(O)OP(=O)(O)OP(=O)(O)O)[C@@H](O)[C@H]3O)c2nc[n+]1[O-] [Adenosine N1-oxide 5'-triphosphate, adenosine N1-oxide 5'-triphosphate, reference compound]	nM	=	16900

* * *

Molecular target: P2Y receptor (turkey erythrocyte membranes) (Meleagris gallopavo, UniProt P49652)
Construct: from tissue; host or cells: washed turkey erythrocytes, ghosts prepared by hypotonic lysis
Assay: Stimulation of phospholipase C (inositol phosphate formation) in turkey erythrocyte membranes
Type: biochemical
Conditions: turkey erythrocyte membranes; read from graph; read-out: K0.5
MEASUREMENT KIND: EC50 (µM)

> print(dat)
                               given.smiles                               measured.on  recorded.result
1  C=CCCCCSc1nc(NC)c2ncn([C@@H]3O[C@H](COP(=O)(O)OP(=O)(O)OP(=O)(O)O)[C@@H](O)[C@H]3O)c2n1  P2Y receptor (turkey erythrocyte membranes) (Meleagris gallopavo, UniProt P49652)             0.01

* * *

Biological target: P2Y receptor (taenia coli) (Cavia porcellus, UniProt P59902)
Construct: Relaxant responses mediated via P2Y receptors were examined in guinea pig taenia coli; from tissue; host or cells: guinea pig taenia coli (carbachol-contracted)
Sequence (P59902 whole entry): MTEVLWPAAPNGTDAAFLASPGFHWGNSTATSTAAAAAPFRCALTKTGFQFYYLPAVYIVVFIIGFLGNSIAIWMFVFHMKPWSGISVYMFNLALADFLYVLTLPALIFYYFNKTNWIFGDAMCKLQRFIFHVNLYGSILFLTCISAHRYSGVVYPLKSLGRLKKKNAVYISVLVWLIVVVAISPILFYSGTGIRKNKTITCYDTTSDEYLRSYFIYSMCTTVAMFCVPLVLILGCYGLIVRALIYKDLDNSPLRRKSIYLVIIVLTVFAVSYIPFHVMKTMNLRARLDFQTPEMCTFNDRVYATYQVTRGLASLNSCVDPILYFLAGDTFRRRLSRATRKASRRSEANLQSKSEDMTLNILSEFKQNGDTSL
Assay: Relaxation of carbachol-contracted guinea pig taenia coli
Details: guinea pig taenia coli
MEASUREMENT KIND: activity/potency in words, taenia coli

GIVEN SMILES	RECORDED RESULT
CC(=O)N[C@H]1[C@@H](O)[C@H](n2cnc3c(N)ncnc32)O[C@@H]1COP(=O)(O)OP(=O)(O)OP(=O)(O)O	nearly inactive
Nc1ncnc2c1ncn2[C@@H]1O[C@H](COP(=O)(O)OP(=O)(O)OP(=O)(O)O)[C@@H](NC(=O)CCc2ccc(O)cc2)[C@H]1O	nearly inactive

* * *

Target: P2Y receptor (turkey erythrocyte membranes) (Meleagris gallopavo, UniProt P49652)
Construct: from tissue; host or cells: washed turkey erythrocytes, ghosts prepared by hypotonic lysis
Assay: Stimulation of phospholipase C (inositol phosphate formation) in turkey erythrocyte membranes
Assay type: biochemical
Conditions: turkey erythrocyte membranes; mean ± S.E.M. for at least 2 determinations; read-out: phosphatidyl inositol metabolism (K0.5, nM) erythrocyte
Reported EC50 is given for each of the following compounds.
MEASUREMENT KIND: EC50 (nM)

> print(dat)
                               given.smiles                               measured.on  recorded.result
1  CCCCCCCCCCCSc1nc(N)c2ncn([C@@H]3O[C@H](COP(=O)(O)O)[C@@H](O)[C@H]3O)c2n1  P2Y receptor (turkey erythrocyte membranes) (Meleagris gallopavo, UniProt P49652)             1000
2  NCCCCCCCSc1nc(N)c2ncn([C@@H]3O[C@H](COP(=O)(O)OP(=O)(O)OP(=O)(O)O)[C@@H](O)[C@H]3O)c2n1  P2Y receptor (turkey erythrocyte membranes) (Meleagris gallopavo, UniProt P49652)             72.8
3  CCCCCCSc1nc(N)c2ncn([C@@H]3O[C@H](COP(=O)(O)OP(=O)(O)OP(=O)(O)O)[C@@H](O)[C@H]3O)c2n1  P2Y receptor (turkey erythrocyte membranes) (Meleagris gallopavo, UniProt P49652)                5

* * *

Recorded log10(EC50) for the following compounds
Target: P2Y receptor (turkey erythrocyte membranes) (Meleagris gallopavo)
Construct: from tissue; host or cells: washed turkey erythrocytes, ghosts prepared by hypotonic lysis
Experiment: Stimulation of phospholipase C (inositol phosphate formation) in turkey erythrocyte membranes
Assay type: biochemical
Details: turkey erythrocyte membranes; mean ± S.E.M. for at least 2 determinations; read-out: phosphatidyl inositol metabolism (K0.5, nM) erythrocyte
MEASUREMENT KIND: log10(EC50) (log10 of the value in nM)

> print(dat)
                                   compound  recorded.result
1  Nc1ncnc2c1ncn2[C@@H]1O[C@H](COP(=O)(O)OP(=O)(O)OP(=O)(O)O)[C@@H](N)[C@H]1O [3'-Amino-3'deoxy-ATP, reference compound]             2.29
2  C=CCCCCSc1nc(N)c2ncn([C@@H]3O[C@H](COP(=O)(O)OP(=O)(O)OP(=O)(O)O)[C@@H](O)[C@H]3O)c2n1 [2-(S-Hexenyl)thio-ATP]             1.00
3  Nc1ncnc2c1ncn2[C@@H]1O[C@H](COP(=O)(O)OP(=O)(O)OP(O)(O)=S)[C@@H](O)[C@H]1O [ATP-γ-S, reference compound]             3.10
4  C=CCCCCSc1nc(NC)c2ncn([C@@H]3O[C@H](COP(=O)(O)OP(=O)(O)OP(=O)(O)O)[C@@H](O)[C@H]3O)c2n1             1.41
5  O=P(O)(O)OP(=O)(O)OP(=O)(O)OC[C@H]1O[C@@H](n2cnc3c(NCCc4ccccc4)ncnc32)[C@H](O)[C@@H]1O             3.85

* * *

Molecular target: adenylyl cyclase linked P2Y receptor (C6 rat glioma cells) (Rattus norvegicus)
Construct: endogenous in cells; host or cells: C6 rat glioma cells
Sequence (Q9EPX4 whole entry): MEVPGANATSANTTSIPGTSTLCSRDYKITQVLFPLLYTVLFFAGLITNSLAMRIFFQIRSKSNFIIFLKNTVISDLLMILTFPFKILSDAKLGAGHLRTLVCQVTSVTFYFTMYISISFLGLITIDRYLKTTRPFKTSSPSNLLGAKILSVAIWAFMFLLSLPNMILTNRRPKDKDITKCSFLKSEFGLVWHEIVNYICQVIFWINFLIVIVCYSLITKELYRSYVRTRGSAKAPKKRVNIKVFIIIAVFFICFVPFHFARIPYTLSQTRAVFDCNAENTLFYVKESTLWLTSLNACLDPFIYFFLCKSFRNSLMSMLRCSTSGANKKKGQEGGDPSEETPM
Assay: Inhibition of adenylyl cyclase in C6 rat glioma cells
Format: cell-based
Details: C6 rat glioma cells; 10 μM isoproterenol; read-out: K0.5 values (in nM) for inhibition of adenylyl cyclase in C6 cells
MEASUREMENT KIND: log10(IC50) (log10 of the value in nM)

> print(dat)
                                   molecule  measurement.kind  recorded.result
1  CCCCCCSc1nc(N)c2ncn([C@@H]3O[C@H](COP(=O)(O)OP(=O)(O)OP(=O)(O)O)[C@@H](O)[C@H]3O)c2n1       log10(IC50)            -1.52
2  C=CCCCCSc1nc(N)c2ncn([C@@H]3O[C@H](COP(=O)(O)O)[C@@H](O)[C@H]3O)c2n1       log10(IC50)             0.30
3  Nc1nc(SCCc2ccc([N+](=O)[O-])cc2)nc2c1ncn2[C@@H]1O[C@H](COP(=O)(O)OP(=O)(O)OP(=O)(O)O)[C@@H](O)[C@H]1O       log10(IC50)             0.00
4  C=CCCCCSc1nc(NC)c2ncn([C@@H]3O[C@H](COP(=O)(O)OP(=O)(O)OP(=O)(O)O)[C@@H](O)[C@H]3O)c2n1       log10(IC50)            -0.49
5  C=CCCCCSc1nc(N)c2ncn([C@@H]3O[C@H](COP(=O)(O)OP(=O)(O)OP(=O)(O)O)[C@@H](O)[C@H]3O)c2n1 [2-(S-Hexenyl)thio-ATP]       log10(IC50)            -0.92
6  C=CCCCCSc1nc(N)c2ncn([C@@H]3O[C@H](COP(=O)(O)OP(=O)(O)O)[C@@H](O)[C@H]3O)c2n1       log10(IC50)            -1.15
